Tested on: NCI-H522 lung
ASSAY OVERVIEW: NCI tumour cell line growth inhibition, 48 h
Hi there, I'd appreciate the recorded TGI for every entry that follows.
Give just the numeric value; µM need not be written.

Qu. Request body: readout TGI, system NCI-H522 lung, query COc1ccc(N=NN2CCCC2)cc1 . Return the value.
Ans. 32.2

Qu. Recall the recorded TGI for C=C1C(=O)OC2C(C)C3C=CC(=O)[C@@]3(C)C(OC(=O)/C(C)=C/C)C1[C@@H]2OC(C)=O (stereo partly specified) with NCI-H522 lung and state it.
Ans. 0.334

Qu. Please provide the recorded TGI for COc1ccc2c(CNCCCCO)cc3cc4c(cc3c2c1)OCO4 , tested on NCI-H522 lung.
Ans. 2.93

---

Tested on: SF-295 CNS
ASSAY OVERVIEW: NCI tumour cell line growth inhibition, 48 h
EXPERIMENTAL READOUT: TGI (µM)
Just the number please, in µM, no unit attached.

Qu. If you can, please state the reported TGI value of O=c1c2ccccc2nc(-c2ccc(Cl)cc2)n1O .
Ans. 94.1

Qu. Item under review: CC1(C)OC1CC/C(=C/CBr)CBr (configuration not stated) . Reported TGI?
Ans. 27.6

Qu. Param item = Cc1ccccc1NC(=O)NC(CC(N)=O)c1ccc2c(c1)nc(-c1cccc(Oc3ccc(C(C)(C)C)cc3)c1)n2CCCN1CCCCC1C (configuration not stated) ; retrieve measured TGI.
Ans. 9.57

Qu. TGI lookup needed for Cc1nn(-c2ccccc2)c(C)c1/C=N/NC(=O)c1sc(=S)n(-c2ccc(Cl)cc2)c1N , thanks.
Ans. 5.37

Qu. Query (compound): COc1ccc2c(CNCCCCO)cc3cc4c(cc3c2c1)OCO4 ; field requested: TGI
Ans. 4.68

Qu. Entry CC(C)[C@]12O[C@H]1[C@@H]1O[C@]13[C@]1(O[C@H]1C[C@H]1c4c(C(=O)c5ccccc5)oc(OC(=O)c5ccccc5)c4CC[C@@]13C)[C@@H]2O : reported TGI = ?
Ans. 2.75

---

Tested on: HCT-15 colon
ASSAY OVERVIEW: NCI tumour cell line growth inhibition, 48 h
EXPERIMENTAL READOUT: TGI (µM)
Please respond with the number in µM and leave the unit unwritten.

Qu. Need TGI of O=C(Nc1ccccc1Cl)c1ccc(NC2=C(Cl)C(=O)N(Cc3ccccc3)C2=O)cc1 , thanks.
Ans. 29.2

Qu. Could you share which TGI value was measured for CC1=C(C(=O)Nc2ccc(F)c(Cl)c2)C(c2cccc(Cl)c2)NC(=O)N1 (stereo not given) ?
Ans. 46.9

Qu. Item C=C(C)C1CC2=C(C(=O)OC)C=C(O2)C(C(=C)C)[C@@H]2OC(=O)/C(=C\C1O)[C@H]2N(C)C (stereo not given in full) has what recorded TGI?
Ans. 22.5

Qu. Given N#CC(C(=O)c1ccccc1F)c1nc2cc(C(F)(F)F)ccc2s1 (stereo not given) , state its recorded TGI.
Ans. 56.7

Qu. I am curious: what TGI value has been reported for O=C1c2cccc3cccc(c23)C(=O)N1CCCCOc1ccc(-c2nc3ccc(N4CCOCC4)cc3[nH]2)cc1 ?
Ans. 8.01

Qu. Can you look up the measured TGI of CCOC(=O)c1c(OCC)[nH]c(=O)c(C(c2ccc(F)cc2)c2c(O)c(C(=O)OCC)c(OCC)[nH]c2=O)c1O for me?
Ans. 40.4

Qu. Value lookup for TGI; key = CNCCNc1nc2ccccc2c2c(=O)c3cccc(OC)c3sc12
Ans. 2.15

Qu. Reported TGI, compound C=C1C(=O)OC2C(C)C3C=CC(=O)[C@@]3(C)C(OC(=O)/C(C)=C/C)C1[C@@H]2OC(C)=O (stereo not given in full) : ____
Ans. 0.782

Qu. Can you share its TGI? I mean this compound: O=Nc1c(-c2cccc([N+](=O)[O-])c2)nc2ncccn12
Ans. 17.8

Qu. Field request: TGI | item: COc1cc2c(/C=C3\C(=O)Nc4ccc(Br)cc43)c(Cl)n(C)c2cc1C
Ans. 8.06
